Readout: melting point

Guide cases for melting point, answers given:
Ask: Supply melting point value. Item: CN(C(=O)c1cnc2c(C(F)(F)F)cccc2c1-c1ccccc1)c1ccccc1
Reply: 188 to 190 °C

Ask: Supply melting point value. Item: O=C(Nc1cccc(F)c1)c1cnc2c(C(F)(F)F)cccc2c1-c1ccccc1
Reply: 171 to 173 °C

Ask: Supply melting point value. Item: CCc1ccc(N(C)C(=O)c2cnc3c(C(F)(F)F)cccc3c2-c2ccccc2)cc1
Reply: 136 to 138 °C

Ask: Supply melting point value. Item: Cc1ccc(NC(=O)c2cnc3c(C(F)(F)F)cccc3c2-c2ccccc2)cc1
Reply: 203 to 205 °C

API: the following record is the query input.
Ask: Supply melting point value. Item: Cc1cccc(NC(=O)c2cnc3c(C(F)(F)F)cccc3c2-c2ccccc2)c1
Reply: 182 to 184 °C

====

Readout: melting point

Guide cases for melting point, answers given:
Ask: Supply melting point value. Item: O=S(=O)(c1ccccc1)c1cnc2c(C(F)(F)F)cccc2c1-c1ccccc1
Reply: 149 to 151 °C

Ask: Supply melting point value. Item: O=C(O)Cc1ccc(COc2cccc(-c3c(-c4ccccc4)cnc4c(C(F)(F)F)cccc34)c2)cc1
Reply: 122 °C

Ask: Supply melting point value. Item: Oc1ccc(F)c(-c2c(-c3ccccc3)cnc3c(C(F)(F)F)cccc23)c1
Reply: 85 °C

Ask: Supply melting point value. Item: COc1cc(-c2c(-c3ccccc3)cnc3c(C(F)(F)F)cccc23)ccc1Cl
Reply: 172 to 174 °C

Ask: Supply melting point value. Item: Cc1ccccc1-c1cnc2c(C(F)(F)F)cccc2c1-c1cccc(NC(=O)Nc2ccccc2F)c1
Reply: 218 to 220 °C

New cases:
Ask: Supply melting point value. Item: CN(C(=O)c1cnc2c(C(F)(F)F)cccc2c1-c1ccccc1)c1ccc(F)cc1
Reply: 138 to 140 °C

Ask: Supply melting point value. Item: Cc1ccc(N(C)C(=O)c2cnc3c(C(F)(F)F)cccc3c2-c2ccccc2)cc1
Reply: 143 to 145 °C

Ask: Supply melting point value. Item: O=C(O)c1ccc(COc2cccc(-c3c(-c4ccccc4)cnc4c(C(F)(F)F)cccc34)c2)cc1
Reply: 108 to 112 °C

====

melting point overview

Ask: Supply melting point value. Item: FC(F)(F)c1cccc2c(-c3ccccc3)c(Sc3ccccc3)cnc12 [Example 411]
Reply: 139 to 141 °C

Ask: Supply melting point value. Item: Oc1cccc(-c2c(-c3ccccc3F)cnc3c(C(F)(F)F)cccc23)c1 [Example 458]
Reply: 186 to 187 °C

Ask: Supply melting point value. Item: CN(C(=O)c1cnc2c(C(F)(F)F)cccc2c1-c1ccccc1)c1cccc(C(F)(F)F)c1 [Example 382]
Reply: 163 to 165 °C

Ask: Supply melting point value. Item: O=C(Nc1cccc(-c2c(-c3ccccc3)cnc3c(C(F)(F)F)cccc23)c1)Nc1ccccc1Cl [Example 76]
Reply: 192 to 195 °C

Ask: Supply melting point value. Item: COC(=O)/C=C/c1ccc(COc2cc(-c3c(-c4ccccc4)cnc4c(C(F)(F)F)cccc34)ccc2Cl)cc1
Reply: 149 to 151 °C

Ask: Supply melting point value. Item: CCc1cccc(N(C)C(=O)c2cnc3c(C(F)(F)F)cccc3c2-c2ccccc2)c1 [Example 386]
Reply: 144 to 146 °C

Ask: Supply melting point value. Item: Cc1ccccc1N(C)C(=O)c1cnc2c(C(F)(F)F)cccc2c1-c1ccccc1 [Example 381]
Reply: 144 °C

Ask: Supply melting point value. Item: FC(F)(F)c1cccc2c(-c3ccccc3)c(Oc3ccccc3)cnc12 [Example 407]
Reply: 122 °C

New cases:
Ask: Supply melting point value. Item: O=C(Nc1ccc(Cl)cc1)c1cnc2c(C(F)(F)F)cccc2c1-c1ccccc1 [Example 372]
Reply: 153 to 155 °C

Ask: Supply melting point value. Item: CN(C(=O)c1cnc2c(C(F)(F)F)cccc2c1-c1ccccc1)c1ccc(Cl)cc1 [Example 383]
Reply: 177 to 179 °C

Ask: Supply melting point value. Item: O=C(Nc1ccccc1Cl)c1cnc2c(C(F)(F)F)cccc2c1-c1ccccc1 [Example 374]
Reply: 173 to 175 °C

Ask: Supply melting point value. Item: O=C(O)/C=C/c1ccc(COc2cc(-c3c(-c4ccccc4)cnc4c(C(F)(F)F)cccc34)ccc2Cl)cc1
Reply: 257 °C

Ask: Supply melting point value. Item: Cc1ccccc1-c1cnc2c(C(F)(F)F)cccc2c1-c1cccc(NC(=O)Nc2ccccc2)c1
Reply: 192 to 195 °C

Ask: Supply melting point value. Item: FC(F)(F)c1cccc2c(-c3ccccc3)c(-c3ccccc3)cnc12 [Example 390]
Reply: 138 to 140 °C

Ask: Supply melting point value. Item: COc1ccccc1N(C)C(=O)c1cnc2c(C(F)(F)F)cccc2c1-c1ccccc1 [Example 387]
Reply: 138 °C

Ask: Supply melting point value. Item: Oc1cc(-c2c(-c3ccccc3)cnc3c(C(F)(F)F)cccc23)ccc1Cl [Example 392]
Reply: 252 °C

Ask: Supply melting point value. Item: COC(=O)/C=C/c1ccc(COc2cccc(-c3c(-c4ccccc4)cnc4c(C(F)(F)F)cccc34)c2)cc1
Reply: 91 °C

====

Readout: melting point

Guide cases for melting point, answers given:
Ask: Supply melting point value. Item: Cc1nc2c(C(F)(F)F)cccc2c(-c2ccccc2)c1C(=O)c1ccccc1
Reply: 175 to 177 °C

Ask: Supply melting point value. Item: Oc1cccc(-c2c(-c3ccccc3)cnc3c(C(F)(F)F)cccc23)c1
Reply: 123 °C

Ask: Supply melting point value. Item: CN(C(=O)c1cnc2c(C(F)(F)F)cccc2c1-c1ccccc1)c1cccc(Cl)c1
Reply: 211 to 213 °C

Ask: Supply melting point value. Item: CN(C(=O)c1cnc2c(C(F)(F)F)cccc2c1-c1ccccc1)c1cccc(F)c1
Reply: 200 to 202 °C

New cases:
Ask: Supply melting point value. Item: O=C(Nc1ccc(F)cc1)c1cnc2c(C(F)(F)F)cccc2c1-c1ccccc1
Reply: 157 to 159 °C

Ask: Supply melting point value. Item: Cc1cccc(N(C)C(=O)c2cnc3c(C(F)(F)F)cccc3c2-c2ccccc2)c1
Reply: 174 to 176 °C

Ask: Supply melting point value. Item: Nc1cccc(-c2c(-c3ccccc3)cnc3c(C(F)(F)F)cccc23)c1
Reply: 163 to 165 °C

Ask: Supply melting point value. Item: O=C(Nc1ccccc1)Nc1cccc(-c2c(-c3ccccc3)cnc3c(C(F)(F)F)cccc23)c1
Reply: 202 to 205 °C

====

melting point overview

Guide cases for melting point, answers given:
Ask: Supply melting point value. Item: O=C(Nc1cccc(C(F)(F)F)c1)c1cnc2c(C(F)(F)F)cccc2c1-c1ccccc1 [Example 371]
Reply: 155 to 157 °C

Ask: Supply melting point value. Item: Cc1ccccc1-c1cnc2c(C(F)(F)F)cccc2c1-c1cccc(N)c1
Reply: 148 to 151 °C

Ask: Supply melting point value. Item: Cc1ccccc1-c1cnc2c(C(F)(F)F)cccc2c1-c1cccc(NC(=O)Nc2ccccc2Cl)c1
Reply: 224 to 226 °C

Ask: Supply melting point value. Item: OCCc1ccc(COc2cccc(-c3c(-c4ccccc4)cnc4c(C(F)(F)F)cccc34)c2)cc1
Reply: 50 °C

Ask: Supply melting point value. Item: COc1cc(C(=O)O)ccc1COc1cccc(-c2c(C(=O)c3ccccc3)cnc3c(C(F)(F)F)cccc23)c1 [Example 515]
Reply: 100 to 110 °C

New cases:
Ask: Supply melting point value. Item: COC(=O)c1ccc(COc2cccc(-c3c(C(=O)c4ccccc4)cnc4c(C(F)(F)F)cccc34)c2)c(OC)c1 [Example 507]
Reply: 60 to 63 °C

Ask: Supply melting point value. Item: O=C(Nc1cccc(Cl)c1)c1cnc2c(C(F)(F)F)cccc2c1-c1ccccc1 [Example 373]
Reply: 159 to 161 °C

Ask: Supply melting point value. Item: O=C(Nc1ccccc1)c1cnc2c(C(F)(F)F)cccc2c1-c1ccccc1 [Example 72]
Reply: 207 to 208 °C
